- Measurement Notes: HoxA9-arrested leukemia cell differentiation promoters – flow cytometry, MLPCN library, primary screen (AID 624256)
- Condition Set: ER-HoxA9 myeloid progenitors, lysozyme-GFP differentiation, at 10 µM
Hit rate of the full screen: of about 360,000 compounds, about 3,700 (1%) were called active. Roughly 2% stayed inconclusive and do not appear here.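 Rule for the calls: active = normalized GFP-positive differentiation at or above the plate's own cutoff, the solvent-only control mean plus 3 SD; inconclusive = no clear call, values can overlap the other calls; inactive = the rest.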 The list comes from a sample in which actives are over-represented; it also holds close analogues and randomly drawn compounds.
Labels: Yes for active, No for inactive

| Compound | Qualitative Label |
| --- | --- |
| CS(=O)(=O)c1ccc2c(c1)SC1=NC(=O)/C(=C/c3ccco3)C(=N)N12 | No |
| CCCCc1c(-c2ccc(Cl)cc2)ncn1CCc1ccccc1OC | No |
| Cc1ccc(COc2ccc(/C=N/NC(=O)CN3CCCCC3)cc2)cc1 | No |
| CC(C)(C)NC(=O)C(CCc1ccccc1)n1c(=O)c(-c2ccccc2)nc2ccccc21 (stereo unspecified) | No |
| CCCCCc1c(Cc2ccccc2)ncn1CCc1ccccc1OC | No |
| CCOC(=O)C1=CC[C@@H](c2ccccc2)N(S(=O)(=O)c2ccc(C)cc2)[C@H]1c1ccc(CC)cc1 | No |
| CC1(C(=O)NS(=O)(=O)Cc2cccc(Cl)c2)CCN1C(=O)Cc1ccc(Cl)cc1Cl (stereo unspecified) | No |
| O=c1c2ccccc2oc2nc3n(c(=O)c12)CCCS3 | No |
| O=C(C[n+]1ccc2c(c1)nnn2-c1ccccc1)c1ccc(Cl)cc1 | Yes |
| O=C(Nc1ccccc1N1CCOCC1)c1ccncc1 | No |
| CCc1nc2ccc(C(=O)NC3CCN(Cc4ccccc4)CC3)cn2c1N(CC)CCOC | No |
| Cc1ccc(COc2ccc(C(=O)NN)cc2)cc1 | Yes |
| O=C(CSc1cccc[n+]1[O-])c1ccc(Cl)cc1 | No |
| O=C(/C=C/[C@H]1O[C@@H](n2ccc(=O)[nH]c2=O)[C@H](O)[C@@H]1O)NCc1ccccn1 | No |
| COc1ccc(Cn2c(=O)oc3ccccc32)cc1 | No |
| C[C@H](NC(=O)c1nc[nH]c1C(=O)NCC(=O)OC(C)(C)C)C(=O)OCc1ccccc1 | No |
| COC(=O)COc1ccc2c(c1C)O/C(=C\c1ccco1)C2=O | No |
| CC1CCCN(C(=O)c2cc(-c3ccco3)nc3ccccc23)C1 (stereo unspecified) | No |
| C[C@@H]1CN([C@@H](C)CO)C(=O)c2cc(NC(=O)C3CC3)ccc2O[C@H]1CN(C)C | No |
| COc1cc(N=Cc2c(O)[nH]c3ccccc23)cc(OC)c1OC | Yes |
| CCCNC(=O)c1cc2c(c(-c3cccc(-c4ccc(C#N)cc4)c3)n1)[C@@H](CCO)N(C(=O)CC)C2 | No |
| CC(NC(=O)c1cccc(S(=O)(=O)N2CCc3ccccc3C2)c1)c1ccco1 (stereo unspecified) | No |
| CN(CCOc1ccccc1)C(=O)c1cc(-c2ccco2)nc2ccccc12 | No |
| CC1CCCCN1C(=O)Cn1c(=O)oc2cc(S(=O)(=O)N3CCCCC3)ccc21 (stereo unspecified) | Yes |
| Cc1cccc(N2CCN(C(=O)c3cccc(S(=O)(=O)N4CCc5ccccc5C4)c3)CC2C)c1 (stereo unspecified) | Yes |
| COc1cccc(CN(C)C(=O)CC[C@H]2O[C@@H](n3cnc4c(NC(=O)c5ccccc5)ncnc43)[C@H](O)[C@@H]2O)c1 | No |
| COc1ccc(NC(=O)Nc2ccc3c(c2)C(=O)N([C@H](C)CO)C[C@H](C)[C@@H](CN(C)C(=O)Nc2ccc4c(c2)OCO4)O3)cc1 | No |
| CCN(CC)C(=O)C1CCCN(Cc2cccc(Cl)c2)C1 (stereo unspecified) | No |
| O=C(c1cc(-c2ccco2)nc2ccccc12)N(Cc1nnc(-c2ccc(Cl)cc2)o1)C1CC1 | Yes |
| CCOc1nc(NCCN2CCOCC2)nc(Nc2ccc(C)cc2)n1 | No |
| CO[C@@H]1CN(C)C(=O)c2cc(NC(=O)C3CC3)ccc2OC[C@H](C)N(C(=O)CN2CCOCC2)C[C@@H]1C | No |
| Nc1c(C(=O)c2cccs2)sc2nsc(SCCN3CCCCC3)c12 | Yes |
| Fc1ccc(-c2ccc(NCCN3CCOCC3)nn2)cc1 | No |
| c1nc(COc2nsnc2N2CCOCC2)cs1 | Yes |
| CC1(C)OC(=O)C2=C(C[C@@H](C3CC3)O[C@H]2c2ccc(Cl)cc2)O1 | No |
| O=C(O)COc1nsnc1N1CCOCC1 | No |
| Cc1ccc(C)c(C(O)c2ncc(-c3cccc4ccccc34)[nH]2)c1 (stereo unspecified) | No |
| c1ccc2c(c1)nnn2-c1ccncc1 | No |
| CCOP(=O)(OCC)C(Cc1ccccc1)N=C(c1ccccc1)c1ccccc1 (stereo unspecified) | No |
| COC(=O)[C@@]1(Sc2ccc(C)cc2)CC(=O)N(c2cccc(SC)c2)[C@@H]1c1ccccc1 | No |
| O=C(N[C@@H](Cc1ccccc1)C(=O)OCc1ccccc1)c1nc[nH]c1C(=O)N[C@@H](Cc1ccccc1)C(=O)OCc1ccccc1 | No |
